Source listed as patent US4564612A.

test.target: Angiotensin I Converting Enzyme (ACE) (Oryctolagus cuniculus, UniProt P12822)
Sequence (P12822 34-1310): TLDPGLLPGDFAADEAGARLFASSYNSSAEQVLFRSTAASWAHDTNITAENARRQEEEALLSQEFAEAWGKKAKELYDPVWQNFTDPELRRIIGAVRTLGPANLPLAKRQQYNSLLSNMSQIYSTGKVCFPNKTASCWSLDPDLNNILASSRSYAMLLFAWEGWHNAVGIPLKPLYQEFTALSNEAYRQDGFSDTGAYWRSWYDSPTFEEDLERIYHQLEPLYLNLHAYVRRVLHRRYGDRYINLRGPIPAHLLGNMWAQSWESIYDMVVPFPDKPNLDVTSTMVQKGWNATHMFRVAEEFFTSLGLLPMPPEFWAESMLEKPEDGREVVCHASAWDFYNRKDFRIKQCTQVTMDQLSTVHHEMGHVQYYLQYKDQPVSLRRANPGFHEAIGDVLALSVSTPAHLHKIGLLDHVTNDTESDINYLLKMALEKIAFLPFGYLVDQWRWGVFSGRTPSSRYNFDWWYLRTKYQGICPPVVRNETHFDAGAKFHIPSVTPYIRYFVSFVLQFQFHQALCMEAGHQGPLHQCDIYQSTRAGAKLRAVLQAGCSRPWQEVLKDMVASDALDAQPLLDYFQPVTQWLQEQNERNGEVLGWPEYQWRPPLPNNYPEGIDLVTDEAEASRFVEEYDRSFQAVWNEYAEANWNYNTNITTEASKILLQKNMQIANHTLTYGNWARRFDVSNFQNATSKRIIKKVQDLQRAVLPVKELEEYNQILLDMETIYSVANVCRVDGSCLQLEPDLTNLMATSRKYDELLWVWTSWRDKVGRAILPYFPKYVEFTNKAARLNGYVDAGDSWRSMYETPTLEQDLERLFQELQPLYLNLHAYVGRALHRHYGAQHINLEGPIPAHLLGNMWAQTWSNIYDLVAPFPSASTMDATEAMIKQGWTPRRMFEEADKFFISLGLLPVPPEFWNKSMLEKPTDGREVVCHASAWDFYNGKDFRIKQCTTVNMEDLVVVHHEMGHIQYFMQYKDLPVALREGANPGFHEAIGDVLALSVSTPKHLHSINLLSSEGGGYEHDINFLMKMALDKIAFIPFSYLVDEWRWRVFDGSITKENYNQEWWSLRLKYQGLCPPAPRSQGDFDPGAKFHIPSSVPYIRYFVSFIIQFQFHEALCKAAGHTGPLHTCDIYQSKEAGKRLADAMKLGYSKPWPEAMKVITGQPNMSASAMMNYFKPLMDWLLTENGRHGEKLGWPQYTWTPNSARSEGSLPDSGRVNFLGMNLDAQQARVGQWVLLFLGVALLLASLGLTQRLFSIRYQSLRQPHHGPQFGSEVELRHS
assay.remarks: Inhibition of Angiotensin I Converting Enzyme (ACE), HHL substrate, modified Cushman method
Format: biochemical
run.parameters: concentration 0.1 μM; read-out: ACE inhibitory activity (%)
Structures can show the parent of a compound that is named as a salt.
We use 50% as the dividing line for inhibition at 0.1 µM: on or above the line is Satisfied, below is Not satisfied.

| compound | test.target | cat |
| --- | --- | --- |
| CCOC(=O)[C@H](CCc1ccccc1)N[C@H]1CSc2ccccc2N(CC(=O)O)C1=O.Cl [Example 7, hydrochloride] | Angiotensin I Converting Enzyme (ACE) (Oryctolagus cuniculus, UniProt P12822) | Satisfied |
| CCOC(=O)C(CCc1ccccc1)N[C@H]1CSc2ccccc2N(CC(=O)O)C1=O (some centres unmarked) [Example 6] | Angiotensin I Converting Enzyme (ACE) (Oryctolagus cuniculus, UniProt P12822) | Not satisfied |
| NCCCCCC[C@H](N[C@H]1CSc2ccccc2N(CC(=O)O)C1=O)C(=O)O [Example 73] | Angiotensin I Converting Enzyme (ACE) (Oryctolagus cuniculus, UniProt P12822) | Satisfied |
| CCOC(=O)[C@H](CCC1CCCCC1)N[C@H]1CSc2ccccc2N(CC(=O)O)C1=O.Cl [Example 9, hydrochloride] | Angiotensin I Converting Enzyme (ACE) (Oryctolagus cuniculus, UniProt P12822) | Satisfied |
| NCCCC[C@H](N[C@H]1CSc2ccccc2N(CC(=O)O)C1=O)C(=O)O [Example 60] | Angiotensin I Converting Enzyme (ACE) (Oryctolagus cuniculus, UniProt P12822) | Satisfied |
| CCOC(=O)[C@@H](CCc1ccccc1)N[C@H]1CSc2ccccc2N(CC(=O)O)C1=O [Example 5, hydrochloride] | Angiotensin I Converting Enzyme (ACE) (Oryctolagus cuniculus, UniProt P12822) | Not satisfied |
| O=C(O)CN1C(=O)[C@@H](N[C@@H](CCCCNC2CCCCC2)C(=O)O)CSc2ccccc21 [Example 69] | Angiotensin I Converting Enzyme (ACE) (Oryctolagus cuniculus, UniProt P12822) | Satisfied |
| O=C(O)CN1C(=O)[C@@H](N[C@@H](CCC2CCCCC2)C(=O)O)CSc2ccccc21 [Example 50] | Angiotensin I Converting Enzyme (ACE) (Oryctolagus cuniculus, UniProt P12822) | Satisfied |
